Measured Max (maximal level of binding) values are reported for all entries that follow.
Target: T1, synthetic amyloid-like fibrils of recombinant amyloidogenic λ6 variable domain protein (rVλ6Wil)
T1 construct: domain: λ6 variable domain; Fibrillar aggregate of many copies; also called rVλ6Wil fibrils; rVλ6Wil synthetic fibrils
Experiment: EuLISA, substrate coated on plate
Experimental: To perform europium-linked immunosorbent assays (EuLISAs), suspensions of rVλ6Wil fibrils (sonicated) were prepared at 0.83 μM in phosphate buffered saline (PBS). The fibrils were coated onto the wells of a 96-well microplate by adding 50 μL to each well. The plates dried at 37° C. overnight. […] Time-resolved fluorescence emission was detected using a microplate reader (Wallac). […]
Answer using only a numeral; do not append any unit.

- binder: "VH9/VL4-p5R (humanized VH9/VL4 with peptide p5R fused to the N-terminal of the light chain) (antibody, V domains shown) VH: QVQLQESGPGLVKPSETLSLTCTVSGFSLSSYGVSWIRQPPGKGLEWLGVIWGDGSTNYHPNLMSRVTISVDTSKSQVLFKLSSVTAADTAVYYCATLDYWGQGTSVTVSS VL: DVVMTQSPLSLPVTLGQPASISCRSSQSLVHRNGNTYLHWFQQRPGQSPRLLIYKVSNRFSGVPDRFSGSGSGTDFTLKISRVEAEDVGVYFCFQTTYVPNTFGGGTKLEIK"
  Max (maximal level of binding): 82.7

Then there is this binder:
Ask | Note down Max (maximal level of binding) recorded for murine antibody m11-1F4 (antibody, V domains shown, Murine IgG1 kappa; also called murine 11-1F4; m1-1F4) VH: QVQLKESGPGLVAPSQSLSITCTVSGFSLSSYGVSWVRQPPGKGLEWLGVIWGDGSTNYHPNLMSRLSISKDISKSQVLFKLNSLQTDDTATYYCVTLDYWGQGTSVTVSS VL: DVVMTQTPLSLPVSLGDQASISCRSSQSLVHRNGNTYLHWYLQKPGQSPKLLIYKVSNRFSGVPDRFSGSGSGTDFTLKISRVEAEDLGLYFCFQTTYVPNTFGGGTKLEIK
Reply | 184

Origin of the recorded values: patent US20250368729A1
